Tested on: rice (Diamant variety)
Experiment: Rice seed treatment with BHMPA salts: germinating power
Type: in vivo
Conditions: rice seeds; solution concentration 1 · 10^−11%
Consider the following compounds; for each one, report its Mass, dry, root.
Report as a plain number; the unit g/100 plantlings is understood.

Q) What Mass, dry, root value was documented for this compound, O=P([O-])(CO)CO.O=P([O-])(CO)CO.[Mg+2] [Mg-salt, Magnesium BHMPA Salt] ?
A) 0.27

Q) What Mass, dry, root value was documented for this compound, O.O.O=P([O-])(CO)CO.O=P([O-])(CO)CO.[Mn+2] [Mn-salt, Manganese BHMPA Salt] ?
A) 0.23

Q) What Mass, dry, root value was documented for this compound, O=P([O-])(CO)CO.[Na+] [Na-salt, Sodium BHMPA Salt] ?
A) 0.30

Q) What Mass, dry, root value was documented for this compound, O.O.O=P([O-])(CO)CO.O=P([O-])(CO)CO.[Co+2] [Co-salt, Cobalt BHMPA Salt] ?
A) 0.20

Q) What Mass, dry, root value was documented for this compound, O=P([O-])(CO)CO.O=P([O-])(CO)CO.[Ca+2] [Ca-salt, Calcium BHMPA Salt] ?
A) 0.23
